# Test system: Saccharomyces cerevisiae
# procedure text: protein stability index of tFT-peptide fusion (C-terminal peptide) (PSI (0-1 scale)); higher = more stable (slower turnover)
# recorded conditions: genetic background: wild type; temperature: 30 C
measured metric: protein stability index

- sequence input: "LGGAVLSRFGAR"
  result number: 0.738
- sequence input: "LRMMLLVTIILE"
  result number: 0.188
- sequence input: "GSAFIRFRSSFG"
  result number: 0.638
- sequence input: "YTSTPTLYTRLW"
  result number: 0.689
- sequence input: "SAPSPPPPLAPP"
  result number: 0.679
- sequence input: "KREKGLKQIVRL"
  result number: 0.683
- sequence input: "SIPSPLVPPLTR"
  result number: 0.72
- sequence input: "PHVGSGDGVMKA"
  result number: 0.598
- sequence input: "KKRHERNYLVQS"
  result number: 0.662
- sequence input: "PPPRPLSPPFPF"
  result number: 0.641
- sequence input: "WYHALTLASWLS"
  result number: 0.577
- sequence input: "PPIALTPRTPAP"
  result number: 0.747
- sequence input: "PPVAYVCHLYVT"
  result number: 0.428
- sequence input: "FFLLFCASFLRC"
  result number: 0.381
- sequence input: "KKTEKKYNRNRG"
  result number: 0.786
- sequence input: "TVGGAMSCLGWL"
  result number: 0.714
- sequence input: "MCGLVGDVLAVG"
  result number: 0.762
- sequence input: "YLYSSSPWILHG"
  result number: 0.383
- sequence input: "AVAPPISTLLPV"
  result number: 0.743
- sequence input: "GRGAGRATQSPP"
  result number: 0.597
- sequence input: "VVREARTLNGDM"
  result number: 0.671
- sequence input: "KIIKNKIKKHNK"
  result number: 0.626
- sequence input: "FCYVEDLSVSVD"
  result number: 0.611
- sequence input: "VIGRRRLQDWII"
  result number: 0.736
- sequence input: "PSSPPVLPLHFH"
  result number: 0.728
- sequence input: "PAPPAPPPPPYL"
  result number: 0.735
- sequence input: "RGKVVRLLLERM"
  result number: 0.72
- sequence input: "PKQMVVRRSRRP"
  result number: 0.695
- sequence input: "MLLLIDTSGGWS"
  result number: 0.71
- sequence input: "GWRAGGTGAPSR"
  result number: 0.653
- sequence input: "YKVKADRVRHRR"
  result number: 0.692
- sequence input: "WRGLGWSDAGGG"
  result number: 0.654
- sequence input: "GGGGGVCGACVV"
  result number: 0.685
- sequence input: "SVFSPSTALLYP"
  result number: 0.697
- sequence input: "TSKVEVDKGKLE"
  result number: 0.723
- sequence input: "QGRIVSVILLSL"
  result number: 0.557
- sequence input: "VGGHGGVGGGMG"
  result number: 0.651
- sequence input: "AGCFFVVLCGFF"
  result number: 0.431
- sequence input: "PLPASFPPFPTL"
  result number: 0.802
- sequence input: "SSCRHYRSPINH"
  result number: 0.764
- sequence input: "GVSWMRAGFEFM"
  result number: 0.779

====

Each item that follows carries a reported protein stability index.
# Test system: Saccharomyces cerevisiae
# procedure text: protein stability index of tFT-peptide fusion in wild type (PSI (0-1 scale)); higher = more stable (slower turnover)
# recorded conditions: genetic background: wild type
measured metric: protein stability index

- sequence input: "RSLRVLLPLYFG"
  assay target: "Saccharomyces cerevisiae"
  measured metric: "protein stability index"
  result number: 0.452
- sequence input: "ARWAVGLWRGAS"
  assay target: "Saccharomyces cerevisiae"
  measured metric: "protein stability index"
  result number: 0.428
- sequence input: "LVVCLSCVACIN"
  assay target: "Saccharomyces cerevisiae"
  measured metric: "protein stability index"
  result number: 0.0139
- sequence input: "FSMRWTFRYWVNS"
  assay target: "Saccharomyces cerevisiae"
  measured metric: "protein stability index"
  result number: 0.194
- sequence input: "PLIQPLPVQFLN"
  assay target: "Saccharomyces cerevisiae"
  measured metric: "protein stability index"
  result number: 0.0682
- sequence input: "RLIQPLPVQCLN"
  assay target: "Saccharomyces cerevisiae"
  measured metric: "protein stability index"
  result number: 0.173
- sequence input: "VRGAVGGWRLVE"
  assay target: "Saccharomyces cerevisiae"
  measured metric: "protein stability index"
  result number: 0.726
- sequence input: "PSLAASFWDVVG"
  assay target: "Saccharomyces cerevisiae"
  measured metric: "protein stability index"
  result number: 0.694
- sequence input: "AGTLPMCPLLLR"
  assay target: "Saccharomyces cerevisiae"
  measured metric: "protein stability index"
  result number: 0.461
- sequence input: "RVTRLDASYFRI"
  assay target: "Saccharomyces cerevisiae"
  measured metric: "protein stability index"
  result number: 0.676
- sequence input: "CLVSLPILRFFR"
  assay target: "Saccharomyces cerevisiae"
  measured metric: "protein stability index"
  result number: 0.612
- sequence input: "FSMGWTFRYWVN"
  assay target: "Saccharomyces cerevisiae"
  measured metric: "protein stability index"
  result number: 0.0807
- sequence input: "RVARLDAIYFRI"
  assay target: "Saccharomyces cerevisiae"
  measured metric: "protein stability index"
  result number: 0.449
- sequence input: "RVTRLDAIYFRD"
  assay target: "Saccharomyces cerevisiae"
  measured metric: "protein stability index"
  result number: 0.688
- sequence input: "VRGKVGGWRLVG"
  assay target: "Saccharomyces cerevisiae"
  measured metric: "protein stability index"
  result number: 0.129
- sequence input: "RVTRLDSIYFRI"
  assay target: "Saccharomyces cerevisiae"
  measured metric: "protein stability index"
  result number: 0.46
- sequence input: "FSMRWTFRYWVNR"
  assay target: "Saccharomyces cerevisiae"
  measured metric: "protein stability index"
  result number: 0.559
- sequence input: "AIGLPMCPLLLR"
  assay target: "Saccharomyces cerevisiae"
  measured metric: "protein stability index"
  result number: 0.297
- sequence input: "LVVYLSCVACINK"
  assay target: "Saccharomyces cerevisiae"
  measured metric: "protein stability index"
  result number: 0.0222
- sequence input: "VRGAVGGWRLVM"
  assay target: "Saccharomyces cerevisiae"
  measured metric: "protein stability index"
  result number: 0.321
- sequence input: "FSMRWQFRYWVN"
  assay target: "Saccharomyces cerevisiae"
  measured metric: "protein stability index"
  result number: 0.0795
- sequence input: "KKHKKGQKSKIN"
  assay target: "Saccharomyces cerevisiae"
  measured metric: "protein stability index"
  result number: 0.548
- sequence input: "RSLRVLLGLYFR"
  assay target: "Saccharomyces cerevisiae"
  measured metric: "protein stability index"
  result number: 0.392
- sequence input: "RVTRLDAIYFRC"
  assay target: "Saccharomyces cerevisiae"
  measured metric: "protein stability index"
  result number: 0.431
- sequence input: "LKILRCKMNHQN"
  assay target: "Saccharomyces cerevisiae"
  measured metric: "protein stability index"
  result number: 0.17
- sequence input: "FSMRWTFRGWVN"
  assay target: "Saccharomyces cerevisiae"
  measured metric: "protein stability index"
  result number: 0.313
- sequence input: "AITLPMCPNLLR"
  assay target: "Saccharomyces cerevisiae"
  measured metric: "protein stability index"
  result number: 0.645
- sequence input: "CTSCGYKFRTDN"
  assay target: "Saccharomyces cerevisiae"
  measured metric: "protein stability index"
  result number: 0.65
- sequence input: "KKHKKGQKQAIN"
  assay target: "Saccharomyces cerevisiae"
  measured metric: "protein stability index"
  result number: 0.57
- sequence input: "PDKRNHLIKLLK"
  assay target: "Saccharomyces cerevisiae"
  measured metric: "protein stability index"
  result number: 0.758
- sequence input: "YTSCGYKFRTNN"
  assay target: "Saccharomyces cerevisiae"
  measured metric: "protein stability index"
  result number: 0.212
- sequence input: "LVVYLSCVACIS"
  assay target: "Saccharomyces cerevisiae"
  measured metric: "protein stability index"
  result number: 0.014
- sequence input: "LVVYLSCVACINY"
  assay target: "Saccharomyces cerevisiae"
  measured metric: "protein stability index"
  result number: 0.0212
- sequence input: "CLVSLPILYFFR"
  assay target: "Saccharomyces cerevisiae"
  measured metric: "protein stability index"
  result number: 0.468
- sequence input: "PDKRNHLLKLLN"
  assay target: "Saccharomyces cerevisiae"
  measured metric: "protein stability index"
  result number: 0.157
- sequence input: "LKHLRQKMNHQN"
  assay target: "Saccharomyces cerevisiae"
  measured metric: "protein stability index"
  result number: 0.175
- sequence input: "GLSMCSVGCWFR"
  assay target: "Saccharomyces cerevisiae"
  measured metric: "protein stability index"
  result number: 0.235
- sequence input: "KKHKKGQKQKEN"
  assay target: "Saccharomyces cerevisiae"
  measured metric: "protein stability index"
  result number: 0.57
- sequence input: "KKHKKGQMQKIN"
  assay target: "Saccharomyces cerevisiae"
  measured metric: "protein stability index"
  result number: 0.209
- sequence input: "CLVSLPILLFFA"
  assay target: "Saccharomyces cerevisiae"
  measured metric: "protein stability index"
  result number: 0.256
- sequence input: "CTSCGYKFRTNNV"
  assay target: "Saccharomyces cerevisiae"
  measured metric: "protein stability index"
  result number: 0.684
- sequence input: "LVVYLSCVAKIN"
  assay target: "Saccharomyces cerevisiae"
  measured metric: "protein stability index"
  result number: 0.0143
- sequence input: "LVVYNSCVACIN"
  assay target: "Saccharomyces cerevisiae"
  measured metric: "protein stability index"
  result number: 0.245
- sequence input: "AITLPMAPLLLR"
  assay target: "Saccharomyces cerevisiae"
  measured metric: "protein stability index"
  result number: 0.253
- sequence input: "GLYMCSQGCWFR"
  assay target: "Saccharomyces cerevisiae"
  measured metric: "protein stability index"
  result number: 0.463
- sequence input: "CTSCGYKFRTNNE"
  assay target: "Saccharomyces cerevisiae"
  measured metric: "protein stability index"
  result number: 0.709
- sequence input: "VRGAVGGWRLVP"
  assay target: "Saccharomyces cerevisiae"
  measured metric: "protein stability index"
  result number: 0.436
- sequence input: "CLVSLPILLFFRS"
  assay target: "Saccharomyces cerevisiae"
  measured metric: "protein stability index"
  result number: 0.0709
- sequence input: "LVVYLSCKACIN"
  assay target: "Saccharomyces cerevisiae"
  measured metric: "protein stability index"
  result number: 0.0136
- sequence input: "FSDRWTFRYWVN"
  assay target: "Saccharomyces cerevisiae"
  measured metric: "protein stability index"
  result number: 0.095
- sequence input: "RVTRLDAIYCRI"
  assay target: "Saccharomyces cerevisiae"
  measured metric: "protein stability index"
  result number: 0.621
- sequence input: "FAMRWTFRYWVN"
  assay target: "Saccharomyces cerevisiae"
  measured metric: "protein stability index"
  result number: 0.0656
- sequence input: "RSLRVLLPKYFR"
  assay target: "Saccharomyces cerevisiae"
  measured metric: "protein stability index"
  result number: 0.646
- sequence input: "VRGAVGGWRGVG"
  assay target: "Saccharomyces cerevisiae"
  measured metric: "protein stability index"
  result number: 0.602
- sequence input: "RSLRVFLPLYFR"
  assay target: "Saccharomyces cerevisiae"
  measured metric: "protein stability index"
  result number: 0.127
- sequence input: "VRGAVGKWRLVG"
  assay target: "Saccharomyces cerevisiae"
  measured metric: "protein stability index"
  result number: 0.172
- sequence input: "ITSCGYKFRTNN"
  assay target: "Saccharomyces cerevisiae"
  measured metric: "protein stability index"
  result number: 0.208
- sequence input: "CLVSLPILLFFRH"
  assay target: "Saccharomyces cerevisiae"
  measured metric: "protein stability index"
  result number: 0.0656
- sequence input: "CNVSLPILLFFR"
  assay target: "Saccharomyces cerevisiae"
  measured metric: "protein stability index"
  result number: 0.0527
- sequence input: "AITLPICPLLLR"
  assay target: "Saccharomyces cerevisiae"
  measured metric: "protein stability index"
  result number: 0.194
- sequence input: "AITLYMCPLLLR"
  assay target: "Saccharomyces cerevisiae"
  measured metric: "protein stability index"
  result number: 0.309
- sequence input: "LAVYLSCVACIN"
  assay target: "Saccharomyces cerevisiae"
  measured metric: "protein stability index"
  result number: 0.0214
- sequence input: "RVTRLDAIYFRIE"
  assay target: "Saccharomyces cerevisiae"
  measured metric: "protein stability index"
  result number: 0.627
- sequence input: "CLVSLPILLFLR"
  assay target: "Saccharomyces cerevisiae"
  measured metric: "protein stability index"
  result number: 0.0512
- sequence input: "LTILRQKMNHQN"
  assay target: "Saccharomyces cerevisiae"
  measured metric: "protein stability index"
  result number: 0.123
- sequence input: "PSLAASFWRKVG"
  assay target: "Saccharomyces cerevisiae"
  measured metric: "protein stability index"
  result number: 0.131
- sequence input: "QSMRWTFRYWVN"
  assay target: "Saccharomyces cerevisiae"
  measured metric: "protein stability index"
  result number: 0.047
- sequence input: "FSMRWTFRYWVNT"
  assay target: "Saccharomyces cerevisiae"
  measured metric: "protein stability index"
  result number: 0.318
- sequence input: "AWTLPMCPLLLR"
  assay target: "Saccharomyces cerevisiae"
  measured metric: "protein stability index"
  result number: 0.111
- sequence input: "RVTRLDAIYFRR"
  assay target: "Saccharomyces cerevisiae"
  measured metric: "protein stability index"
  result number: 0.653
- sequence input: "CLRSLPILLFFR"
  assay target: "Saccharomyces cerevisiae"
  measured metric: "protein stability index"
  result number: 0.0732
- sequence input: "RVTRLDGIYFRI"
  assay target: "Saccharomyces cerevisiae"
  measured metric: "protein stability index"
  result number: 0.389
- sequence input: "LVVYLLCVACIN"
  assay target: "Saccharomyces cerevisiae"
  measured metric: "protein stability index"
  result number: 0.0159
- sequence input: "RVTALDAIYFRI"
  assay target: "Saccharomyces cerevisiae"
  measured metric: "protein stability index"
  result number: 0.558
- sequence input: "LKILRQKMNMQN"
  assay target: "Saccharomyces cerevisiae"
  measured metric: "protein stability index"
  result number: 0.281
- sequence input: "RHTRLDAIYFRI"
  assay target: "Saccharomyces cerevisiae"
  measured metric: "protein stability index"
  result number: 0.517
- sequence input: "ARWRVGRWRGAS"
  assay target: "Saccharomyces cerevisiae"
  measured metric: "protein stability index"
  result number: 0.533
- sequence input: "CLVSLPLLLFFR"
  assay target: "Saccharomyces cerevisiae"
  measured metric: "protein stability index"
  result number: 0.0578
- sequence input: "GGYMCSVGCWFR"
  assay target: "Saccharomyces cerevisiae"
  measured metric: "protein stability index"
  result number: 0.439
- sequence input: "ATWRVGLWRGAS"
  assay target: "Saccharomyces cerevisiae"
  measured metric: "protein stability index"
  result number: 0.487
- sequence input: "LVVYLSCVHCIN"
  assay target: "Saccharomyces cerevisiae"
  measured metric: "protein stability index"
  result number: 0.0533
